Measured values drawn from PubChem BioAssay AID449762 for this set.

assay remarks: M. tuberculosis growth inhibition, HTS (AID 449762);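 note: bacterial growth assessed after seven days of incubation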
assay conditions: M. tuberculosis H37Rv growth inhibition, 7H9 media; at 25 µM; stronger effect = higher value
Among all 330,000 compounds or so, about 1,900 (0.58%) were called active. Another 4% or so got no clear call; they are omitted. Not all results are given here. Entries with a potency or affinity are not part of this list.
Below: a set of entries, each annotated with reported inhibition.
value type: inhibition

smiles_notation=O=C(CN1CCN(c2ncccn2)CC1)N1CCCc2c1c(=O)oc1ccc(O)cc21 data_value="6.59% (inactive)"
smiles_notation=C1=C(c2c[nH]c3ccccc23)CCN(Cc2ccccc2)C1 data_value="8.31% (inactive)"
smiles_notation=Oc1ccc(-c2c(-c3ccsc3)sc3ccccc23)cc1 data_value="28.2% (inactive)"
smiles_notation=CCSc1ccc(-c2nn(-c3ccccc3)cc2/C=C(/C#N)C(=O)NCCCOC)cc1 data_value="6.88% (inactive)"
smiles_notation=CCCSc1ccc(-c2nn(-c3ccccc3)cc2/C=C(/C#N)C(=O)NCCCOC)cc1 data_value="-1.57% (inactive)"
smiles_notation=Cc1cccc(NC(=O)CCc2ccc(C)o2)c1 data_value="-15.4% (inactive)"

* * *

assay remarks: M. tuberculosis growth inhibition, HTS (AID 449762);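 note: bacterial growth assessed after seven days of incubation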
assay conditions: M. tuberculosis H37Rv growth inhibition, 7H9 media; at 25 µM; stronger effect = higher value
About 1,900 (0.58%) of roughly 330,000 compounds were called active. Not shown: some 4% with an inconclusive outcome. These entries were drawn from the full list. Results with a measured potency or affinity are listed apart.
value type: inhibition (%)

smiles_notation=O=C1Nc2ccc(Br)cc2/C1=C/c1ccc(C(=O)O)cc1 value_type=inhibition data_value=0.13
smiles_notation=CCOC(=O)CNC(=O)c1cnc(Nc2ccccc2OC)c2ccccc12 value_type=inhibition data_value=2.72
smiles_notation=CC1CCN(C(=O)c2ccc(CSc3nc4ccncc4n3Cc3ccc(F)cc3)cc2)CC1 value_type=inhibition data_value=-5.51
smiles_notation=COc1cccc(CN(C)CC(=O)NCc2ccc(C)cc2)c1 value_type=inhibition data_value=7.23
smiles_notation=CCS(=O)(=O)C1=NN2C(=N)/C(=C\c3ccc(OC(=O)c4ccco4)c(OC)c3)C(=O)N=C2S1 value_type=inhibition data_value=3.16
smiles_notation=CC(C)n1nnnc1-c1ccc(Cl)cc1 value_type=inhibition data_value=-5.7
smiles_notation=COc1cc(/C=C2\C(=N)N3N=C(S(=O)(=O)CC(C)C)SC3=NC2=O)ccc1OC(=O)c1ccco1 value_type=inhibition data_value=0.47
smiles_notation=COc1ccc(CNC(=O)c2ccc(S(=O)(=O)NCc3ccco3)cc2)cc1 value_type=inhibition data_value=9.2
smiles_notation=O=C(Nc1nccs1)c1ccc(S(=O)(=O)N2CCCCC2)cc1 value_type=inhibition data_value=-7.33
smiles_notation=Oc1ccccc1-c1cc(C(F)(F)F)nc(-c2ccccc2)n1 value_type=inhibition data_value=6.24

* * *

assay remarks: M. tuberculosis growth inhibition, HTS (AID 449762);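 note: bacterial growth assessed after seven days of incubation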
assay conditions: M. tuberculosis H37Rv growth inhibition, 7H9 media; at 25 µM; stronger effect = higher value
The campaign covered roughly 330,000 compounds. About 1,900 (0.58%) were called active. Another 4% or so got no clear call; they are omitted. These entries were drawn from the full list. Measured potencies and affinities stand elsewhere.
Listed here are compounds together with their documented inhibition.
value type: inhibition (%)

compound="CC(=O)Nc1ccc(S(=O)(=O)NC2(C(F)(F)F)NC(=O)N(c3ccccc3F)C2=O)cc1 (stereo not given)" unit_descriptor=% data_value=-8.69
compound=O=C(NC(=S)NCCO)c1sc2ccccc2c1Cl unit_descriptor=% data_value=-1.03
compound=O=C(NNC(=S)NC1CCCCC1)c1sc2ccccc2c1Cl unit_descriptor=% data_value=4.12
compound="COc1ccc(N(CC(=O)NC2CC3CCC2C3)S(=O)(=O)c2ccc(C)c([N+](=O)[O-])c2)cc1 (stereo not given)" unit_descriptor=% data_value=2.1
compound=CCOC(=O)c1cc(-c2ccc3c(c2)OCCO3)n[nH]1 unit_descriptor=% data_value=-1.75
compound=CC(=O)c1ccc(-c2ccc(/C=C(/Sc3n[nH]c(C)n3)C(=O)O)o2)cc1 unit_descriptor=% data_value=-2.81
compound=CCOCCn1c(C)c(C(=O)OCC)c2cc(O)c3ccccc3c21 unit_descriptor=% data_value=9.34
compound="COc1ccc(CCN(C(=O)c2cccc(F)c2)C2CC(=O)N(c3ccc(OC)cc3)C2=O)cc1 (stereo not given)" unit_descriptor=% data_value=2.05
compound=O=C(CN(C(=O)CCC(=O)Nc1nccs1)c1ccc(F)cc1)NCc1ccccc1 unit_descriptor=% data_value=-3.51
compound="CC(=O)N(C)c1ccc(OCC(O)Cn2c(C)nc3ccccc32)cc1 (stereo not given)" unit_descriptor=% data_value=0.96
